test: PET hydrolysis, aromatic products released after 48 h (umol product/mg enzyme); higher = more PET depolymerization activity; conditions: substrate: aFilm; 40 °C; pH 5.5
measurement-type: PET hydrolysis

Can you look up the measured PET hydrolysis of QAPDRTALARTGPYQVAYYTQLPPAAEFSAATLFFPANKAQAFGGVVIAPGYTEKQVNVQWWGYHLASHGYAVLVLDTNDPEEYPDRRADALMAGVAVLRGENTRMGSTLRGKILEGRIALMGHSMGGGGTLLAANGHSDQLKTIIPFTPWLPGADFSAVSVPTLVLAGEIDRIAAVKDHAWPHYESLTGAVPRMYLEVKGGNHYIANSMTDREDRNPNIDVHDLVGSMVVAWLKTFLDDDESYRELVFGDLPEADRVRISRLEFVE [TEP006] for me?
< 3

Can you look up the measured PET hydrolysis of ADNPYQRGPDPTPALVASVNGPFATASVSVPAGYGFGGGMIYYPTDTSQGTFGGIAISPGYTALFSAELAWMGPWLASHGFVVIGIETNNRNDFDEARGTQLLAALDYLTQQSPVRNRVDPNRLAVAGHSMGGGGALNAAIRRPSLKAAVGLAPFSPSSNLANDRVPTMVFSGQQDTVVTPSYVTGLYNSLPSTTQSAYLEIAGGDHGFPVGRPNQVMIRTMLPFVKIFVDYDTRYSPFLCPLSDTSGVVTYRSTCPLTPPGLPTTPPTTPPTTVPTSPPTGGPTTPPTTPSQPGGACTATYRTVNSWPGGFQGEVTVTAGNSAINGWTVRWTLDSGQAITQVWNGEVSTSGSTVSVRNAPYNGSLPPSGSTTFGFLSSGSPSSPSLTCTSP [DP059] for me?
< 3

* * *

assay: PET hydrolysis, aromatic products released after 48 h (umol product/mg enzyme); higher = more PET depolymerization activity; settings: substrate: cryPow; 40 °C; pH 8.5
measurement-type: PET hydrolysis
Output spec: single numeric token, no unit.

Can you look up the measured PET hydrolysis of AENPHQRGPNPTVAALEAAAGPFAVAKVSVPGGHGFGGGTITYPTDTSQGTFGAVAVSPGFIESEGAIAWFGPRLASHGFVVITISTNGLFDQPDARGAQLLAALDYVTKSSAVRDRVDPARLAVMGHSMGGGGALYATAQRPALKASIPLLAWSNTKSWGSVRVPTMVIGAENDFIASVGSHSEPFYQSLGGEKAYLEMNDADHFVTNSPTPTVGKLTVSWLKRFMDNDTRYDQFLCPAPPVGGPISEYRDTCPYI [DP017] for me?
6

Can you look up the measured PET hydrolysis of ADNPYQRGPDPTNASIEAATGPFAVGTQPIVGASGFGGGQIYYPTDTSQTYGAVVIVPGFISVWAQLNWLGPRLASQGFVVIGIETSVITDLPDPRGDQALAALDWATTRSPVASRIDRTRLAAAGWSMGGGGLRRAALQRPSLKAIVGMAPWNGERNWSAVTVPTLFFGGSSDAVASPNDHAKPFYNSITRAEKDYIELRNADHFFPTSANTTMAKYFISWLKRWVDNDTRYTQFLCPGPSTGLFAPVSASMNTCPF [DP077] for me?
87

Can you look up the measured PET hydrolysis of QYQKGPDPTTSSLERAGSFATRTISVSSLAASGFGGGRIYYPTASGSYGVIAVSPGYTGTASTMYFWGERLSSHGFVVIVIETNTLLDQPGSRANQLMAALNYTVSQGNSRTSALYGKVDGNRRGVAGHSMGGGGTLIAAADNASLKAAVPMAPWNLSSLSFRGIRVPTMIFGCQSDAIAPVNTHAVPFYNAIPSSTKKGYVEMRLDDHFCVMNGGGHYETLGKLGISWFKRFIDEDTRYSKFLCGTEYNATVRSTEVSDSKNNCPY [DP039] for me?
3

Can you look up the measured PET hydrolysis of ASPYERGPNPTTAILEASSGPYSVSSVSVSSLVTGFGGGRIYYPTTTADGTFGGIAISPGFTARWSSLEWLGPRIASHGFVVIGIETNSIYDQPTSRGQQLLAALDYLVNSSSARTRVDRNRLAVAGHSMGGGGTLYAANARPSLQAAVPIAPWNTDKTWGGVQVPTMIIGGESDSVAPVATHAIPFYTSIPASSEKAYLELNNASHFFPQTVNTTMAKSMVSWLKRYVDDDTRYDPWLCPAPSGLSISDYRDTCPA [DP084] for me?
11

Can you look up the measured PET hydrolysis of ADNPYQRGPDPTQSSVSASRGTFATAQVGVPAGNGFGGGVIYHPTDTSQGTFGAVAIVPGYTATWAAEGAWMGHWLASFGFVVIGIDTNNRNDWDTARGTQLLAALDYLTQRSSVRDRVDPSRTAVMGHSMGGGGAMYAALQRPSLKTAVGLAPFSPSQNLTTTRVPTMLLSGQNDTTTTPASIVNLYNGIPSSVEKAYLELTGAGHGFPTSNNSTMMRNVIPWLKIFVDSDTRYTQFLCPLSDSNGIRTYQNTCPLVPSPVPTTTSTTSSTSTTTTSTTTTTTTSVPVGACSATYRTTNAWSGGYQGEVTVAAGDSAVNGWTVRWTLDSGQTISQVWNGTLSATGSAVSVRNASYNGSLRPGTSTTFGFIAGGAPSTPVLSCTSP [DP072] for me?
32

Can you look up the measured PET hydrolysis of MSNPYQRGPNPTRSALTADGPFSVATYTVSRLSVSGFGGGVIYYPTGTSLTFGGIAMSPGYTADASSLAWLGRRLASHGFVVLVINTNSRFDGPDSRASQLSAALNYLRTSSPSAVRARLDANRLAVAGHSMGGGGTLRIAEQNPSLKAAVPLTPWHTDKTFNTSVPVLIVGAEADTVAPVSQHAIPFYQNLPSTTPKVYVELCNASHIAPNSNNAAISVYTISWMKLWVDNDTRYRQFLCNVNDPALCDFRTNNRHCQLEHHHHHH [LCC-ICCG] for me?
113
